target: Retinoic acid receptor alpha (Homo sapiens, UniProt P10276); test: Binding affinity against RAR alpha receptor using [3H]ATRA as radioligand in CV-1 cells; assay type: cell-based, Cercopithecidae
Sequence (P10276 whole entry): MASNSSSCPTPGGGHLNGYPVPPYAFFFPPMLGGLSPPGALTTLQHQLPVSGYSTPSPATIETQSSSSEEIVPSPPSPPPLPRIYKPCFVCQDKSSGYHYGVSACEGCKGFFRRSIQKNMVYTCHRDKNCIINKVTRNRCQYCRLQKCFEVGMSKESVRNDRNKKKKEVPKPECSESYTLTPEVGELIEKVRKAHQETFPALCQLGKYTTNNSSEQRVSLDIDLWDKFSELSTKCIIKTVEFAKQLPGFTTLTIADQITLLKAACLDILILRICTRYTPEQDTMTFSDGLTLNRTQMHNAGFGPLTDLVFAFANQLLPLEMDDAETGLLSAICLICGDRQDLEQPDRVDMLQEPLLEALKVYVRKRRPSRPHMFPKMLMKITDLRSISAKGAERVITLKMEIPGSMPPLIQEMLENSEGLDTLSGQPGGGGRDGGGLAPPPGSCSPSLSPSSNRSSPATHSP
The reader will find reported Ki values listed item by item below.

>  <COMPOUND_STRUCTURE>
C/C(=C/C=C/C(C)=C/C(=O)O)c1cc(-c2ccc(F)cc2)cc(C(C)C)c1OCC(F)F

>  <VALUE_RELATION_SIGN>
=

>  <Ki, µM>
4.55

$$$$
>  <COMPOUND_STRUCTURE>
C/C(=C/C=C/C(C)=C/C(=O)O)c1cc(-c2cc(F)cc(F)c2)cc(C(C)C)c1OCC(F)F

>  <VALUE_RELATION_SIGN>
>

>  <Ki, µM>
10

$$$$
>  <COMPOUND_STRUCTURE>
CCC(C)(C)c1cc(\C(C)=C(F)/C=C/C(C)=C/C(=O)O)c(OCC(F)F)c(C(C)(C)CC)c1

>  <VALUE_RELATION_SIGN>
=

>  <Ki, µM>
6.59

$$$$
>  <COMPOUND_STRUCTURE>
C/C(=C/C=C/C(C)=C/C(=O)O)c1cc(-c2ccccc2F)cc(C(C)C)c1OCC(F)F

>  <VALUE_RELATION_SIGN>
=

>  <Ki, µM>
6.76

$$$$
>  <COMPOUND_STRUCTURE>
C/C(=C/C=C/C(C)=C/C(=O)O)c1cc(-c2cccs2)cc(C(C)C)c1OCC(F)F

>  <VALUE_RELATION_SIGN>
=

>  <Ki, µM>
4.55

$$$$
>  <COMPOUND_STRUCTURE>
CC(/C=C/C(F)=C(/C)c1cc(C(C)(C)C)cc(C(C)(C)C)c1OCC(F)F)=C\C(=O)O

>  <VALUE_RELATION_SIGN>
=

>  <Ki, µM>
8.3

$$$$
>  <COMPOUND_STRUCTURE>
CCCCOc1c(\C(C)=C(F)/C=C/C(C)=C/C(=O)O)cc(C(C)C)cc1C(C)C

>  <VALUE_RELATION_SIGN>
=

>  <Ki, µM>
3.73

$$$$
>  <COMPOUND_STRUCTURE>
CCCOc1c(\C(C)=C/C=C/C(C)=C/C(=O)O)cc(C(F)(F)C(F)(F)F)cc1C(C)C

>  <VALUE_RELATION_SIGN>
=

>  <Ki, µM>
2.5

$$$$
>  <COMPOUND_STRUCTURE>
C/C(=C/C=C/C(C)=C/C(=O)O)c1cc(C(C)C)cc(-c2ccccc2)c1OCC(F)F

>  <VALUE_RELATION_SIGN>
=

>  <Ki, µM>
4.66

$$$$
>  <COMPOUND_STRUCTURE>
CCOc1c(\C(C)=C/C=C/C(C)=C/C(=O)O)cc(C(F)(F)C(F)(F)F)cc1C(C)C

>  <VALUE_RELATION_SIGN>
>

>  <Ki, µM>
10

$$$$
